test system: Escherichia coli JC-2
MIC less than 0.1 µg/mL is true (1); MIC greater than or equal to 0.1 µg/mL is false (0).

entry-smiles	class
CC(=O)Oc1ccc(C(=O)O/N=C(\C(=O)N[C@@H]2C(=O)N3C(C(=O)O)=C(CSc4nnnn4C)CS[C@H]23)c2coc(N)n2)cc1OC(C)=O	false (0)
CC(=O)Oc1ccc(C(=O)CO/N=C(\C(=O)N[C@@H]2C(=O)N3C(C(=O)O)=C(CSc4nnnn4CC(=O)O)CS[C@H]23)c2coc(N)n2)cc1OC(C)=O	false (0)
CC(=O)Oc1ccc(C(=O)O/N=C(\C(=O)N[C@@H]2C(=O)N3C(C(=O)O)=C(CSc4nnnn4CC(=O)O)CS[C@H]23)c2coc(N)n2)cc1OC(C)=O	true (1)
CC(=O)Oc1ccc(C(=O)O/N=C(\C(=O)N[C@@H]2C(=O)N3C(C(=O)O)=C(CSc4nnc(C)s4)CS[C@H]23)c2coc(N)n2)cc1OC(C)=O	false (0)
CC(=O)Oc1ccc(C(=O)CO/N=C(\C(=O)N[C@@H]2C(=O)N3C(C(=O)O)=C(CSc4nnnn4C)CS[C@H]23)c2coc(N)n2)cc1OC(C)=O	false (0)
CC(=O)OCC1=C(C(=O)O)N2C(=O)[C@@H](NC(=O)/C(=N\OC(=O)c3ccc(OC(C)=O)c(OC(C)=O)c3)c3coc(N)n3)[C@H]2SC1	false (0)
CC(=O)Oc1cc(C(=O)O/N=C(\C(=O)N[C@@H]2C(=O)N3C(C(=O)O)=C(CSc4nnnn4CC(=O)O)CS[C@H]23)c2coc(N)n2)cc(OC(C)=O)c1OC(C)=O	true (1)
CCOC(=O)Oc1ccc(C(=O)O/N=C(\C(=O)N[C@@H]2C(=O)N3C(C(=O)O)=C(CSc4nnnn4C)CS[C@H]23)c2coc(N)n2)cc1OC(=O)OCC	false (0)
CC(=O)OCC1=C(C(=O)O)N2C(=O)[C@@H](NC(=O)/C(=N\OCC(=O)c3ccc(OC(C)=O)c(OC(C)=O)c3)c3coc(N)n3)[C@H]2SC1	false (0)

----------
Here's a batch of compounds along with measured MIC for Proteus vulgaris GN-76.

compound	MIC / µg/mL
CCOC(=O)Oc1ccc(C(=O)O/N=C(\C(=O)N[C@@H]2C(=O)N3C(C(=O)O)=C(CSc4nnnn4C)CS[C@H]23)c2coc(N)n2)cc1OC(=O)OCC [Example 9]	0.2
CC(=O)OCC1=C(C(=O)O)N2C(=O)[C@@H](NC(=O)/C(=N\OCC(=O)c3ccc(OC(C)=O)c(OC(C)=O)c3)c3coc(N)n3)[C@H]2SC1 [Example 1]	1.56
CO/N=C(\C(=O)N[C@@H]1C(=O)N2C(C(=O)O)=C(COC(C)=O)CS[C@H]12)c1csc(N)n1 [Cefotaxime, reference compound]	0.05
CC(=O)Oc1ccc(C(=O)CO/N=C(\C(=O)N[C@@H]2C(=O)N3C(C(=O)O)=C(CSc4nnnn4CC(=O)O)CS[C@H]23)c2coc(N)n2)cc1OC(C)=O [Example 3]	1.56
CC(=O)Oc1ccc(C(=O)O/N=C(\C(=O)N[C@@H]2C(=O)N3C(C(=O)O)=C(CSc4nnc(C)s4)CS[C@H]23)c2coc(N)n2)cc1OC(C)=O [Example 6]	0.2

----------
Here's a batch of molecules along with measured MIC for Proteus vulgaris GN-76.
experimental-readout: MIC (µg/mL)

molecule	measure-unit	recorded-measurement
CC(=O)Oc1cc(C(=O)O/N=C(\C(=O)N[C@@H]2C(=O)N3C(C(=O)O)=C(CSc4nnnn4C)CS[C@H]23)c2coc(N)n2)cc(OC(C)=O)c1OC(C)=O [Example 8]	µg/mL	0.39
CC(=O)Oc1cc(C(=O)O/N=C(\C(=O)N[C@@H]2C(=O)N3C(C(=O)O)=C(CSc4nnnn4CC(=O)O)CS[C@H]23)c2coc(N)n2)cc(OC(C)=O)c1OC(C)=O [Example 10]	µg/mL	0.05
CC(=O)Oc1ccc(C(=O)CO/N=C(\C(=O)N[C@@H]2C(=O)N3C(C(=O)O)=C(CSc4nnnn4C)CS[C@H]23)c2coc(N)n2)cc1OC(C)=O [Example 2]	µg/mL	1.56
CC(=O)OCC1=C(C(=O)O)N2C(=O)[C@@H](NC(=O)/C(=N\OC(=O)c3ccc(OC(C)=O)c(OC(C)=O)c3)c3coc(N)n3)[C@H]2SC1 [Example 4]	µg/mL	0.39
CC(=O)Oc1ccc(C(=O)O/N=C(\C(=O)N[C@@H]2C(=O)N3C(C(=O)O)=C(CSc4nnnn4CC(=O)O)CS[C@H]23)c2coc(N)n2)cc1OC(C)=O [Example 7]	µg/mL	0.1
CC(=O)Oc1ccc(C(=O)O/N=C(\C(=O)N[C@@H]2C(=O)N3C(C(=O)O)=C(CSc4nnnn4C)CS[C@H]23)c2coc(N)n2)cc1OC(C)=O [Example 5]	µg/mL	0.39

----------
tested on: Pseudomonus aeruginosa GN1036; assay: Minimum inhibitory concentration against Pseudomonus aeruginosa GN1036; assay type: cell-based; conditions: Pseudomonas aeruginosa
experimental-readout: log10 MIC (log10 of the value in µg/mL)

compound	log10 MIC
CC(=O)Oc1cc(C(=O)O/N=C(\C(=O)N[C@@H]2C(=O)N3C(C(=O)O)=C(CSc4nnnn4CC(=O)O)CS[C@H]23)c2coc(N)n2)cc(OC(C)=O)c1OC(C)=O	-0.41
CC(=O)OCC1=C(C(=O)O)N2C(=O)[C@@H](NC(=O)/C(=N\OCC(=O)c3ccc(OC(C)=O)c(OC(C)=O)c3)c3coc(N)n3)[C@H]2SC1	-0.11
CO/N=C(\C(=O)N[C@@H]1C(=O)N2C(C(=O)O)=C(COC(C)=O)CS[C@H]12)c1csc(N)n1 [Cefotaxime, reference compound]	1.10
CC(=O)Oc1ccc(C(=O)O/N=C(\C(=O)N[C@@H]2C(=O)N3C(C(=O)O)=C(CSc4nnnn4C)CS[C@H]23)c2coc(N)n2)cc1OC(C)=O	-0.41
CCOC(=O)Oc1ccc(C(=O)O/N=C(\C(=O)N[C@@H]2C(=O)N3C(C(=O)O)=C(CSc4nnnn4C)CS[C@H]23)c2coc(N)n2)cc1OC(=O)OCC	-0.70
CC(=O)Oc1cc(C(=O)O/N=C(\C(=O)N[C@@H]2C(=O)N3C(C(=O)O)=C(CSc4nnnn4C)CS[C@H]23)c2coc(N)n2)cc(OC(C)=O)c1OC(C)=O	-0.41
CC(=O)Oc1ccc(C(=O)O/N=C(\C(=O)N[C@@H]2C(=O)N3C(C(=O)O)=C(CSc4nnnn4CC(=O)O)CS[C@H]23)c2coc(N)n2)cc1OC(C)=O	-1.30
CC(=O)OCC1=C(C(=O)O)N2C(=O)[C@@H](NC(=O)/C(=N\OC(=O)c3ccc(OC(C)=O)c(OC(C)=O)c3)c3coc(N)n3)[C@H]2SC1	-0.11
CC(=O)Oc1ccc(C(=O)CO/N=C(\C(=O)N[C@@H]2C(=O)N3C(C(=O)O)=C(CSc4nnnn4C)CS[C@H]23)c2coc(N)n2)cc1OC(C)=O	-0.70
CC(=O)Oc1ccc(C(=O)CO/N=C(\C(=O)N[C@@H]2C(=O)N3C(C(=O)O)=C(CSc4nnnn4CC(=O)O)CS[C@H]23)c2coc(N)n2)cc1OC(C)=O	-0.70
CC(=O)Oc1ccc(C(=O)O/N=C(\C(=O)N[C@@H]2C(=O)N3C(C(=O)O)=C(CSc4nnc(C)s4)CS[C@H]23)c2coc(N)n2)cc1OC(C)=O	-0.41
